- ASSAYED_TARGET: T1, Recombinant, purified TRBC1 (soluble αβ TCR with the β-chain constant domain TRBC1), SPR analyte (Homo sapiens, HA1.7 TCR with TRBC1)
- T1 construct: also called human TRBC1; recombinant TRBC1; source: recombinant, purified
- ASSAY_NOTES: SPR; Biacore T200; antibody as human IgG1 captured with an anti-human capture kit on CM5 to 200 RU; TRBC1 or TRBC2 as analyte, 150 s contact, 300 s dissociation, 30 μl/min, 25 °C, HBS-P+ pH 7.4; 1:1 Langmuir model
- RUN_PARAMETERS: both partners purified
pKd: −log10 of the molar value.
QUANTITY_MEASURED: pKd

1. RFN (Mut4; HuJovi-1 VH T28R, Y32F, A96N), human IgG1 (antibody, V domains shown, as the VH of m1 with the stated changes; positions in Kabat numbering; constant region of the human IgG1 heavy chain; as the light chain of m1; IgG1 in the SPR; also called Arg28/Phe32/Asn96; source: ExpiCHO, transient transfection, purified (MabSelect SuRe)) VH: QVQLVQSGAEVKKPGASVKVSCKASGYRFTGFVMHWVRQAPGQGLEWMGFINPYNDDIQSNERFRGRVTMTRDTSISTAYMELSRLRSDDTAVYYCARGNGYNFDGAYRFFDFWGQGTMVTVSS VL: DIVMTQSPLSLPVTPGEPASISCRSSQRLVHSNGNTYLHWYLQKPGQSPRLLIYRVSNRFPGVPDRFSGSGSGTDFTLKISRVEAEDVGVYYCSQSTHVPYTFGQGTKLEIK: 5.84
2. Mut1 (HuJovi-1 VH T28K), human IgG1 (antibody, V domains shown, as the VH of m1 with the stated change; positions in Kabat numbering; constant region of the human IgG1 heavy chain; as the light chain of m1; IgG1; also called Lys28 mutant; Thr28Lys; source: ExpiCHO, transient transfection, purified (MabSelect SuRe)) VH: QVQLVQSGAEVKKPGASVKVSCKASGYKFTGYVMHWVRQAPGQGLEWMGFINPYNDDIQSNERFRGRVTMTRDTSISTAYMELSRLRSDDTAVYYCARGAGYNFDGAYRFFDFWGQGTMVTVSS VL: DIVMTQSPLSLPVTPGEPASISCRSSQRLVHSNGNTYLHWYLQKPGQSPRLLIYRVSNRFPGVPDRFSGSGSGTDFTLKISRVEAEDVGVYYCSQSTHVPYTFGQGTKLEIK: 8.17
3. Mut5 (HuJovi-1 VH Y32F), human IgG1 (antibody, V domains shown, as the VH of m1 with the stated change; positions in Kabat numbering; constant region of the human IgG1 heavy chain; as the light chain of m1; IgG1; source: ExpiCHO, transient transfection, purified (MabSelect SuRe)) VH: QVQLVQSGAEVKKPGASVKVSCKASGYTFTGFVMHWVRQAPGQGLEWMGFINPYNDDIQSNERFRGRVTMTRDTSISTAYMELSRLRSDDTAVYYCARGAGYNFDGAYRFFDFWGQGTMVTVSS VL: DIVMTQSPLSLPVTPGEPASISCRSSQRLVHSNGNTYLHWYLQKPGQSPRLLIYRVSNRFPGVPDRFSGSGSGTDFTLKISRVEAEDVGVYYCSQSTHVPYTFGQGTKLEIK: 6.37
4. Mut2 (HuJovi-1 VH T28K, Y32F), human IgG1 (antibody, V domains shown, as the VH of m1 with the stated changes; positions in Kabat numbering; constant region of the human IgG1 heavy chain; as the light chain of m1; IgG1; also called Lys28/Phe32; Thr28Lys, Tyr32Phe double mutant; source: ExpiCHO, transient transfection, purified (MabSelect SuRe)) VH: QVQLVQSGAEVKKPGASVKVSCKASGYKFTGFVMHWVRQAPGQGLEWMGFINPYNDDIQSNERFRGRVTMTRDTSISTAYMELSRLRSDDTAVYYCARGAGYNFDGAYRFFDFWGQGTMVTVSS VL: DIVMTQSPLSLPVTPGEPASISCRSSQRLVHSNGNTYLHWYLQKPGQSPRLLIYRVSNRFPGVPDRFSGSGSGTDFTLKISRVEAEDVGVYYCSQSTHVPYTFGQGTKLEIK: 6.41
5. Mut6 (HuJovi-1 VH A96N), human IgG1 (antibody, V domains shown, as the VH of m1 with the stated change; positions in Kabat numbering; constant region of the human IgG1 heavy chain; as the light chain of m1; IgG1; source: ExpiCHO, transient transfection, purified (MabSelect SuRe)) VH: QVQLVQSGAEVKKPGASVKVSCKASGYTFTGYVMHWVRQAPGQGLEWMGFINPYNDDIQSNERFRGRVTMTRDTSISTAYMELSRLRSDDTAVYYCARGNGYNFDGAYRFFDFWGQGTMVTVSS VL: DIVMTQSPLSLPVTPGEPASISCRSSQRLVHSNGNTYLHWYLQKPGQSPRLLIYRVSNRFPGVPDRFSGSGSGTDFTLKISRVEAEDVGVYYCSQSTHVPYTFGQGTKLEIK: 7.86
6. Mut7 (HuJovi-1 VH T28K, A96N), human IgG1 (antibody, V domains shown, as the VH of m1 with the stated changes; positions in Kabat numbering; constant region of the human IgG1 heavy chain; as the light chain of m1; IgG1; source: ExpiCHO, transient transfection, purified (MabSelect SuRe)) VH: QVQLVQSGAEVKKPGASVKVSCKASGYKFTGYVMHWVRQAPGQGLEWMGFINPYNDDIQSNERFRGRVTMTRDTSISTAYMELSRLRSDDTAVYYCARGNGYNFDGAYRFFDFWGQGTMVTVSS VL: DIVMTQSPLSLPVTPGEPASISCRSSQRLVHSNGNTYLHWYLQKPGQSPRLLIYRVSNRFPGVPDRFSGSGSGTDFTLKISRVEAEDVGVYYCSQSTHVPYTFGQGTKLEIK: 7.44
7. HuJovi-1 (humanized Jovi-1), human IgG1 (antibody, V domains shown, VH of HuJovi-1 (CDRs of Jovi-1 grafted on IGHV1-2*02); constant region of the human IgG1 heavy chain; whole light chain (CDRs of Jovi-1 grafted on IGKV2-29*02, kappa constant from the AbVec kappa vector); IgG1; The section on CDR grafting names HEK293T as host, the section on antibody expression ExpiCHO; also called aTRBC1; source: ExpiCHO, transient transfection, purified (MabSelect SuRe)) VH: QVQLVQSGAEVKKPGASVKVSCKASGYTFTGYVMHWVRQAPGQGLEWMGFINPYNDDIQSNERFRGRVTMTRDTSISTAYMELSRLRSDDTAVYYCARGAGYNFDGAYRFFDFWGQGTMVTVSS VL: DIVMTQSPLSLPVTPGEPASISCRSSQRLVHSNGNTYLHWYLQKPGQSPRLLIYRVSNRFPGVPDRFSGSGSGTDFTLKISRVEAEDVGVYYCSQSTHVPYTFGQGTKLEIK: 8.59
